Molecular target: T1, his-tagged human CDH6 extracellular region protein (hCDH6 ECD-his) (human, UniProt P55285 19-615)
T1 construct: also called Human CDH6-his; hCDH6-his; not shown: his tag
T1 sequence: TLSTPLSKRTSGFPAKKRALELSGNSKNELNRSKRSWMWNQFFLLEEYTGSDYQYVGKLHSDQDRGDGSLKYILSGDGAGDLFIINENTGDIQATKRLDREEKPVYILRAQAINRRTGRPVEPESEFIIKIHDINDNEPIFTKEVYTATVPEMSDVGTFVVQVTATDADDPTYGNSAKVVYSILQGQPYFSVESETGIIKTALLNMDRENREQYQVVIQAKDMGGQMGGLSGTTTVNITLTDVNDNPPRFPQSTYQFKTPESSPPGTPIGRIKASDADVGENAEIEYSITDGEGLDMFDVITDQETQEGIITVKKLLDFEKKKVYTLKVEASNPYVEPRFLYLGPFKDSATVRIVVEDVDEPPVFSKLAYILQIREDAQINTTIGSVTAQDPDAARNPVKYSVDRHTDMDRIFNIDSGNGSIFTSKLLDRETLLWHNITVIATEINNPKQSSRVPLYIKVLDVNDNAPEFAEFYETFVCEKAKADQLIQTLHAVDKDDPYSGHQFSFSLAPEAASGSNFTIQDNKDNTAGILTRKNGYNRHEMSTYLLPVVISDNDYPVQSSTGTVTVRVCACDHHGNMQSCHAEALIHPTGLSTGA
Test: ELISA, coated antigen
Experimental: Human CDH6 protein (hCDH6 ECD-his, conventionally synthesized), monkey CDH6 protein (cynoCDH6 ECD-his, conventionally synthesized; the cynoCDH6 ECD sequence was derived from Uniprot #A0A2K5TW62 (19-615)), and murine CDH6 protein (mCDH6 ECD-his, conventionally synthesized; the mCDH6 ECD sequence was derived from Uniprot #P97326 (19-615)) were diluted with PBS to a final concentration of 1 μg/mL, and added to a 96-well ELISA plate at 100 μL/well. The plate was incubated at 4° C. overnight. […]
OBSERVED PROPERTY: Max OD450 (OD450)
Reply with just the number (in OD450).

Sample records with Max OD450:
1. hCDH6-1-H1L2 (antibody, V domains shown, Humanized) VH: EVQLVQSGAEVKKPGSSVKVSCKASGYTFSNYWMHWVRQAPGQGLEWMGDIDPSHSETHYTQKFKDRVTITVDKSTSTAYMELSSLRSEDTAVYYCARGDLGRFDYWGQGTTVTVSS VL: DIVMTQSPDSLAVSLGERATINCRASESVSIHGTHLMHWYQQKSGQPPKLLIYAASNLESGVPDRFSGSGSETDFTLTISSLQAEDVAVYYCQQSFEDPWTFGGGTKVEIK; 2.75
2. hCDH6-1-H3L2 (antibody, V domains shown, Humanized) VH: EVQLVQSGAEVKKPGSSVKVSCKASGYTFTNYWMHWVRQAPGQGLEWMGDIDPSHSETHYTQKFKDRVTLTVDKSTSTAYMELSSLRSEDTAVYYCARGDLGRFDYWGQGTTVTVSS VL: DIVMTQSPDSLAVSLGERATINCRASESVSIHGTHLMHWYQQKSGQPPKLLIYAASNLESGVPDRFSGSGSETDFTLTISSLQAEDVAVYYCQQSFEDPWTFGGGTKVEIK; 2.58
3. hCDH6-14-H4L1 (antibody, V domains shown, Humanized) VH: EVQLVQSGAEVKKPGASVKVSCKASGYTFTDNYINWVRQAPGQGLEWMGWIYPGTGNSYYNEKFKGRVTITVDTSASTAYMELSSLRSEDTAVYYCASSYGDSFDYWGQGTTVTVSS VL: DIQMTQSPSSLSASVGDRVTITCRASQDIRNYLNWYQQKPGKAFKLLISYTSRLHSGVPSRFSGSGSGTDFTFTISSLQPEDIATYYCQQYSQLPWTFGGGTKVEIK; 2.62

**Q:** Look up Max OD450: hCDH6-1-H1L3 (antibody, V domains shown, Humanized) VH: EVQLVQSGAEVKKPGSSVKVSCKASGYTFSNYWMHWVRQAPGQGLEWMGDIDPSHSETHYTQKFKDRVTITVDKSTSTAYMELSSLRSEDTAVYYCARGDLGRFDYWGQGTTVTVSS VL: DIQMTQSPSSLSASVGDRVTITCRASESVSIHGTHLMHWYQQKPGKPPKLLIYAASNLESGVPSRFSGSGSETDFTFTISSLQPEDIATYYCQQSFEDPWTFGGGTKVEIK
**A:** 2.67

**Q:** Look up Max OD450: hCDH6-1-H3L3 (antibody, V domains shown, Humanized) VH: EVQLVQSGAEVKKPGSSVKVSCKASGYTFTNYWMHWVRQAPGQGLEWMGDIDPSHSETHYTQKFKDRVTLTVDKSTSTAYMELSSLRSEDTAVYYCARGDLGRFDYWGQGTTVTVSS VL: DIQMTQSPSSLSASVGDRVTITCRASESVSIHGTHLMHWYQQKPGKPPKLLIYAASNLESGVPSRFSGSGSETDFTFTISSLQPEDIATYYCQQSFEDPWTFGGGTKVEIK
**A:** 2.71

The reported numbers originate from patent US20260234242A1.
